- Measurement notes: clinical
- Design: species or system human
- Stated conditions: human, in vivo, iv, 50 mg
Positions of bridges follow the written chain, without caps; N, C: chain ends. Non-standard residues stand in square brackets, D forms with d. Residues, ends and D or L forms follow the SMILES beside them. *: point of attachment. X1 = NC[C@@H](CC(=O)*)c1cccc(Cl)c1; Dab = NCC[C@H](N)C(=O)O; Dap = NC[C@H](N)C(=O)O
Test readout: Tmax (h)
Number in h, nothing else.

Quick one: Tmax of CC(C)C[C@@H]1NC(=O)[C@@H](Cc2ccccc2)NC(=O)[C@H](CCN)NC(=O)[C@@H](NC(=O)[C@H](CN)NC(=O)[C@@H](NC(=O)C[C@H](CN)c2cccc(Cl)c2)[C@@H](C)O)CCNC(=O)[C@H]([C@@H](C)O)NC(=O)[C@H](CCN)NC(=O)[C@H](CCN)NC1=O [SPR206] (X1-T[Dap][Dab][Dab][dF]L[Dab][Dab]T; lactam 3-C (inferred)) ? 1

====

- Measurement notes: clinical
- Set-up: species or system human
- Stated conditions: human, in vivo, iv, 10 mg, AUC0–8
Positions of bridges follow the written chain, without caps; N, C: chain ends. Non-standard residues stand in square brackets, D forms with d. Residues, ends and D or L forms follow the SMILES beside them. *: point of attachment. X1 = NC[C@@H](CC(=O)*)c1cccc(Cl)c1; Dab = NCC[C@H](N)C(=O)O; Dap = NC[C@H](N)C(=O)O
Test readout: AUC(0-t) (ng·h/mL)
Number in ng·h/mL, nothing else.

Quick one: AUC(0-t) of CC(C)C[C@@H]1NC(=O)[C@@H](Cc2ccccc2)NC(=O)[C@H](CCN)NC(=O)[C@@H](NC(=O)[C@H](CN)NC(=O)[C@@H](NC(=O)C[C@H](CN)c2cccc(Cl)c2)[C@@H](C)O)CCNC(=O)[C@H]([C@@H](C)O)NC(=O)[C@H](CCN)NC(=O)[C@H](CCN)NC1=O [SPR206] (X1-T[Dap][Dab][Dab][dF]L[Dab][Dab]T; lactam 3-C (inferred)) ? 1560

====

- Measurement notes: clinical
- Parameters: species or system human
- Stated conditions: human, in vivo, 50 mg, Half-life
Positions of bridges follow the written chain, without caps; N, C: chain ends. Non-standard residues stand in square brackets, D forms with d. Residues, ends and D or L forms follow the SMILES beside them. *: point of attachment. X1 = NC[C@@H](CC(=O)*)c1cccc(Cl)c1; Dab = NCC[C@H](N)C(=O)O; Dap = NC[C@H](N)C(=O)O
Test readout: half-life (h)
Number in h, nothing else.

Quick one: half-life of CC(C)C[C@@H]1NC(=O)[C@@H](Cc2ccccc2)NC(=O)[C@H](CCN)NC(=O)[C@@H](NC(=O)[C@H](CN)NC(=O)[C@@H](NC(=O)C[C@H](CN)c2cccc(Cl)c2)[C@@H](C)O)CCNC(=O)[C@H]([C@@H](C)O)NC(=O)[C@H](CCN)NC(=O)[C@H](CCN)NC1=O [SPR206] (X1-T[Dap][Dab][Dab][dF]L[Dab][Dab]T; lactam 3-C (inferred)) ? 3.5

====

- Measurement notes: clinical
- Set-up: species or system human
- Stated conditions: human, in vivo, iv, 200 mg, CL
Positions of bridges follow the written chain, without caps; N, C: chain ends. Non-standard residues stand in square brackets, D forms with d. Residues, ends and D or L forms follow the SMILES beside them. *: point of attachment. X1 = NC[C@@H](CC(=O)*)c1cccc(Cl)c1; Dab = NCC[C@H](N)C(=O)O; Dap = NC[C@H](N)C(=O)O
Test readout: clearance (mL/min)
Number in mL/min, nothing else.

Quick one: clearance of CC(C)C[C@@H]1NC(=O)[C@@H](Cc2ccccc2)NC(=O)[C@H](CCN)NC(=O)[C@@H](NC(=O)[C@H](CN)NC(=O)[C@@H](NC(=O)C[C@H](CN)c2cccc(Cl)c2)[C@@H](C)O)CCNC(=O)[C@H]([C@@H](C)O)NC(=O)[C@H](CCN)NC(=O)[C@H](CCN)NC1=O [SPR206] (X1-T[Dap][Dab][Dab][dF]L[Dab][Dab]T; lactam 3-C (inferred)) ? 81.7
